Numbers sourced from patent US11427548B2.

- TARGET UNDER TEST: Androgen Receptor (Homo sapiens)
- Construct: endogenous in cells; host or cells: VCaP cells
- PROCEDURE DETAILS: Androgen Receptor ELISA assay (PathScan AR ELISA) in VCaP cells: AR degradation, Dmax and DC50
- Format: cell-based
- STATED CONDITIONS: VCaP cells; Table 35; read-out: VCaP DC50
The reader will find reported DC50 values listed item by item below.

Study these solved cases before continuing.
{"COMPOUND": "Cc1ncsc1-c1ccc(CNC(=O)[C@@H]2C[C@@H](O)CN2C(=O)[C@@H](NC(=O)COCCN2CCC(c3ccc(C(=O)N[C@H]4C(C)(C)[C@H](Oc5ccc(C#N)c(Cl)c5)C4(C)C)cc3)CC2)C(C)(C)C)cc1 [Example 525]", "TARGET UNDER TEST": "Androgen Receptor (Homo sapiens)", "ENDPOINT RESULT": "> 501 nM"}
{"COMPOUND": "COc1ccc(CNC(=O)[C@@H]2C[C@@H](O)CN2C(=O)[C@@H](NC(=O)COCCCCCNc2ccc(C(=O)N[C@H]3C(C)(C)[C@H](Oc4ccc(C#N)c(Cl)c4)C3(C)C)cc2)C(C)(C)C)cc1 [Example 522]", "TARGET UNDER TEST": "Androgen Receptor (Homo sapiens)", "ENDPOINT RESULT": "< 50 nM"}

Now let's try a different one.
## Input Given the entry CC(C)(C)[C@H](NC(=O)COCCCCCNc1ccc(C(=O)N[C@H]2C(C)(C)[C@H](Oc3ccc(C#N)c(Cl)c3)C2(C)C)cc1)C(=O)N1C[C@H](O)C[C@H]1C(=O)NCc1ccc(-c2ccccn2)cc1 [Example 536] , report its measured DC50.
## Output < 50 nM

====

- TARGET UNDER TEST: Androgen Receptor (Homo sapiens)
- Construct: endogenous in cells; host or cells: VCaP cells
- PROCEDURE DETAILS: Androgen Receptor ELISA assay (PathScan AR ELISA) in VCaP cells: AR degradation, Dmax and DC50
- Type: cell-based
- STATED CONDITIONS: VCaP, VCaP cells; Table 35; read-out: VCaP Dmax (%)
The reader will find reported Dmax values listed item by item below.

{"COMPOUND": "Cc1ncsc1-c1ccc([C@H](C)NC(=O)[C@@H]2C[C@@H](O)CN2C(=O)[C@@H](NC(=O)COCCN2CCN(c3ccc(C(=O)N[C@H]4C(C)(C)[C@H](Oc5ccc(C#N)c(Cl)c5)C4(C)C)cc3)CC2)C(C)(C)C)cc1 [Example 438]", "Dmax": "> 71%"}
{"COMPOUND": "Cc1ncsc1-c1ccc([C@H](C)NC(=O)[C@@H]2C[C@@H](O)CN2C(=O)[C@@H](NC(=O)CNCCNc2ccc(-c3ccc(C(=O)N[C@H]4C(C)(C)[C@H](Oc5ccc(C#N)c(Cl)c5)C4(C)C)cc3)cn2)C(C)(C)C)cc1 [Example 483]", "Dmax": "> 71%"}
{"COMPOUND": "CC(C)(C)[C@H](NC(=O)COCCCCCNc1ccc(C(=O)N[C@H]2C(C)(C)[C@H](Oc3ccc(C#N)c(Cl)c3)C2(C)C)cc1)C(=O)N1C[C@H](O)C[C@H]1C(=O)NCc1ccc(-n2ncnn2)cc1 [Example 506]", "Dmax": "51 to 70%"}
{"COMPOUND": "CC(C)(C)[C@H](NC(=O)COCCCCOc1ccc(-c2ccc(N3C(=S)N(c4cnc(C#N)c(C(F)(F)F)c4)C(=O)C3(C)C)cc2)cc1)C(=O)N1C[C@H](O)C[C@H]1C(=O)NCc1ccc(C#N)cc1 [Example 571]", "Dmax": "> 71%"}

## Input Given the entry CC(C)(C)[C@H](NC(=O)CNCCNc1ccc(-c2ccc(C(=O)N[C@H]3C(C)(C)[C@H](Oc4ccc(C#N)c(Cl)c4)C3(C)C)cc2)cn1)C(=O)N1C[C@H](O)C[C@H]1C(=O)NCc1ccc(C#N)cc1 [Example 500] , report its measured Dmax.
## Output 26 to 50%

## Input Given the entry Cc1ncsc1-c1ccc([C@H](C)NC(=O)[C@@H]2C[C@@H](O)CN2C(=O)[C@@H](NC(=O)COCC2CCN(c3ccc(C(=O)N[C@H]4C(C)(C)[C@H](Oc5ccc(C#N)c(Cl)c5)C4(C)C)cn3)CC2)C(C)(C)C)cc1 [Example 442] , report its measured Dmax.
## Output > 71%

## Input Given the entry Cc1ncsc1-c1ccc(CNC(=O)[C@@H]2C[C@@H](O)CN2C(=O)[C@@H](NC(=O)COCCCCCNc2ccc(C(=O)N[C@H]3C(C)(C)[C@H](Oc4ccc(C#N)c(Cl)c4)C3(C)C)cc2)C(C)C)cc1 [Example 537] , report its measured Dmax.
## Output 26 to 50%

## Input Given the entry CC(C)(C)[C@H](NC(=O)COCCCCCNc1ccc(C(=O)N[C@H]2C(C)(C)[C@H](Oc3ccc(C#N)c(Cl)c3)C2(C)C)cc1)C(=O)N1C[C@H](O)C[C@H]1C(=O)NCc1ccc(-c2ncccn2)cc1 [Example 535] , report its measured Dmax.
## Output 26 to 50%

====

The reader will find reported DC50 values listed item by item below.
- TARGET UNDER TEST: Androgen Receptor (Homo sapiens, UniProt P10275)
- Construct: endogenous in cells; host or cells: VCaP cells
- Sequence (P10275 whole entry): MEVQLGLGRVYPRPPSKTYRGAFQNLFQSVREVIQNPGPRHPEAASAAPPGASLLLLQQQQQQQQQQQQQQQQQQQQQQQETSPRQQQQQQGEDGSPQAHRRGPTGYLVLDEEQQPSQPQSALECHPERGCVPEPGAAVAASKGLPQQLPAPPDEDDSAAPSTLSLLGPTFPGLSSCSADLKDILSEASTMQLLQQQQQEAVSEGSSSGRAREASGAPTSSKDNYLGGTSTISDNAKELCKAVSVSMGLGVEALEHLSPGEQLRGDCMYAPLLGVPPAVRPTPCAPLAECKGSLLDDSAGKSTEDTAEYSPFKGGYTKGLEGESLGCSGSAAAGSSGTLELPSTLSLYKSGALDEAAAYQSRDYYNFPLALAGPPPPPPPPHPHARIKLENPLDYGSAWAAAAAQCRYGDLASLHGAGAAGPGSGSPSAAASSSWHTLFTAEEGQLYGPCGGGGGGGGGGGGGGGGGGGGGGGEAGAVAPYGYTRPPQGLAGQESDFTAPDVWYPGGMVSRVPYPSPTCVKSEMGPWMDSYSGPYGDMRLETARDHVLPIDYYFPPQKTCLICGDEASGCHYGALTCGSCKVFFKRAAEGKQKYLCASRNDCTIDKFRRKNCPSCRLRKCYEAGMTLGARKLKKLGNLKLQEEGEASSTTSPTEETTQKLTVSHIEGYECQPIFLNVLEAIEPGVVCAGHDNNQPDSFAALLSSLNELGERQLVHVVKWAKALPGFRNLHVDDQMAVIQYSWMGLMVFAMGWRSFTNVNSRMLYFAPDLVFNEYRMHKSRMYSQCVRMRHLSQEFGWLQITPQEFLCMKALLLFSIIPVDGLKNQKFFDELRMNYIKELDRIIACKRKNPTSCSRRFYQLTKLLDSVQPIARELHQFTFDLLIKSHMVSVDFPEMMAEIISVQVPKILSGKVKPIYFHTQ
- PROCEDURE DETAILS: Androgen Receptor ELISA assay (PathScan AR ELISA) in VCaP cells: AR degradation, Dmax and DC50
- Format: cell-based
- STATED CONDITIONS: VCaP cells; Table 36; read-out: VCaP DC50

{"COMPOUND": "Cc1ncsc1-c1ccc([C@H](C)NC(=O)[C@@H]2C[C@@H](O)CN2C(=O)[C@@H](NC(=O)CCCCc2ccc(C(=O)N[C@H]3C(C)(C)[C@H](Oc4ccc(C#N)c(Cl)c4)C3(C)C)cc2)C(C)(C)C)cc1", "TARGET UNDER TEST": "Androgen Receptor (Homo sapiens, UniProt P10275)", "ENDPOINT RESULT": "> 501 nM"}
{"COMPOUND": "Cc1ncsc1-c1ccc([C@H](C)NC(=O)[C@@H]2CC(O)CN2C(=O)[C@H](C(C)C)n2nccc2OCCCCCNc2ccc(C(=O)N[C@H]3C(C)(C)[C@H](Oc4ccc(C#N)c(Cl)c4)C3(C)C)cc2)cc1 (stereo partly drawn) [Example 624]", "TARGET UNDER TEST": "Androgen Receptor (Homo sapiens, UniProt P10275)", "ENDPOINT RESULT": "> 501 nM"}

## Input Find DC50 (Androgen Receptor (Homo sapiens, UniProt P10275)) for the entry Cc1ncsc1-c1ccc([C@H](C)NC(=O)C2C[C@@H](O)CN2C(=O)[C@@H](NC(=O)COCCN2C3CCC2CN(c2ccc(C(=O)NC4C(C)(C)C(Oc5ccc(C#N)c(Cl)c5)C4(C)C)cn2)C3)C(C)(C)C)cc1 (stereo partly drawn)
## Output < 50 nM

====

- TARGET UNDER TEST: Androgen Receptor (Homo sapiens, UniProt P10275)
- Construct: endogenous in cells; host or cells: VCaP cells
- PROCEDURE DETAILS: Androgen Receptor ELISA assay (PathScan AR ELISA) in VCaP cells: AR degradation, Dmax and DC50
- Assay type: cell-based
- STATED CONDITIONS: VCaP cells; Table 36; read-out: VCaP DC50
The reader will find reported DC50 values listed item by item below.

Study these solved cases before continuing.
{"COMPOUND": "Cc1ncsc1-c1ccc(C(CO)NC(=O)[C@@H]2CC(O)CN2C(=O)[C@@H](NC(=O)CN2CCN(CCN3CCN(c4ccc(C(=O)NC5C(C)(C)C(Oc6ccc(C#N)c(Cl)c6)C5(C)C)cn4)CC3)CC2)C(C)(C)C)cc1 (stereo partly drawn)", "TARGET UNDER TEST": "Androgen Receptor (Homo sapiens, UniProt P10275)", "DC50": "< 50 nM"}
{"COMPOUND": "[2H]C(Nc1ccc(C(=O)N[C@H]2C(C)(C)[C@H](Oc3ccc(C#N)c(Cl)c3)C2(C)C)cc1)C([2H])([2H])C([2H])([2H])C([2H])([2H])C([2H])([2H])OCC(=O)N[C@H](C(=O)N1C[C@H](O)C[C@H]1C(=O)N[C@@H](C)c1ccc(-c2scnc2C)cc1)C(C)(C)C (stereo partly drawn)", "TARGET UNDER TEST": "Androgen Receptor (Homo sapiens, UniProt P10275)", "DC50": "< 50 nM"}
{"COMPOUND": "CNC(=O)[C@H]1CCCN1C(=O)C(NC(=O)COCCN1CCN(c2ccc(C(=O)N[C@H]3C(C)(C)[C@H](Oc4ccc(C#N)c(Cl)c4)C3(C)C)cn2)CC1)C(C)(C)C (stereo partly drawn)", "TARGET UNDER TEST": "Androgen Receptor (Homo sapiens, UniProt P10275)", "DC50": "> 501 nM"}
{"COMPOUND": "CO[C@@H]1C[C@@H](C(=O)N[C@@H](C)c2ccc(-c3scnc3C)cc2)N(C(=O)[C@@H](NC(=O)CN2CCN(CCCc3ccc(C(=O)N[C@H]4C(C)(C)[C@H](Oc5ccc(C#N)c(C(F)(F)F)c5)C4(C)C)cc3)CC2)C(C)(C)C)C1", "TARGET UNDER TEST": "Androgen Receptor (Homo sapiens, UniProt P10275)", "DC50": "> 501 nM"}
{"COMPOUND": "CC(C)[C@H](OCCN1CCN(c2ccc(C(=O)N[C@H]3C(C)(C)[C@H](Oc4ccc(C#N)c(Cl)c4)C3(C)C)cn2)CC1)C(=O)N[C@@H](C)C(=O)N1C[C@H](O)C[C@H]1C(=O)NCc1ccc(Cl)cc1", "TARGET UNDER TEST": "Androgen Receptor (Homo sapiens, UniProt P10275)", "DC50": "> 501 nM"}

Now let's try a different one.
## Input Given the entry Cc1ncsc1-c1ccc([C@H](C)NC(=O)C2C[C@@H](O)CN2C(=O)C(NC(=O)CCC(F)(F)CN2CCN(c3ccc(C(=O)N[C@H]4C(C)(C)[C@H](Oc5ccc(C#N)c(Cl)c5)C4(C)C)cn3)CC2)C(C)(C)C)cc1 (stereo partly drawn) , report its measured DC50.
## Output < 50 nM
